// % Active IgG (antigen binding activity after preservation at 40 C for 4 W) lookup, one value per entry
# Assay Target: T1, recombinant human IL-33 protein (residues 112 to 270) (ILC0701, ATGen Co. Ltd) (human, UniProt O95760 112-270)
# T1 construct: bought protein
# T1 sequence: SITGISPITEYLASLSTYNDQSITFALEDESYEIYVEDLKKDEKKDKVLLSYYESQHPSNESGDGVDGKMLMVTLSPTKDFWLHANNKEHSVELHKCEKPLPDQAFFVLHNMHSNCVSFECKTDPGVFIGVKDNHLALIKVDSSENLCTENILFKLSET
# Run Description: SPR (Biacore T200), human IL-33 (ILC0701) immobilized on CM5, Calibration Free Concentration Analysis of the preserved antibody against a control-preserved sample
Reported Metric: % Active IgG (antigen binding activity after preservation at 40 C for 4 W)

{"Binder": "A25-3H04 (IgG) (antibody, V domains shown, tested as neutral-purified and as alkaline-purified antibody; also called V17; IGN17) VH: EVQLLESGGGLVQPGGSLRLSCAASGFTFSRYYMHWVRQAPGKGLEWVSSISAQSSHIYYADSVEGRFTISRDNSKNTLYLQMNSLRAEDTAVYYCARLATRQNAFDIWGQGTLVTVSS VL: QSVLTQPPSASGTPGQRVTISCSGSSSNIGRNAVNWYQQLPGTAPKLLIYASNMRRSGVPDRFSGSKSGTSASLAISGLRSEDEADYYCSAWDDSQKVVVFGGGTKLTVL", "Reported": "102%"}
{"Binder": "A23-1A05 (IgG) (antibody, V domains shown, tested as neutral-purified and as alkaline-purified antibody; also called V8; IGN8) VH: EVQLLESGGGLVQPGGSLRLSCAASGFTFSNYYMHWVRQAPGKGLEWVSSISARSRYHYYADSVKGRFTISRDNSKNTLYLQMNSLRAEDTAVYYCARLATRHNAFDIWGQGTLVTVSS VL: QSVLTQPPSASGTPGQRVTISCSGSSSNIGNNAVSWYQQLPGTAPKLLIYASNMRVIGVPDRFSGSKSGTSASLAISGLRSEDEADYYCGAWDDSQKALVFGGGTKLTVL", "Reported": "102%"}
